TARGET_ENTITY: Solute carrier family 22 member 4 (Homo sapiens, UniProt Q9H015)
Sequence (Q9H015 whole entry): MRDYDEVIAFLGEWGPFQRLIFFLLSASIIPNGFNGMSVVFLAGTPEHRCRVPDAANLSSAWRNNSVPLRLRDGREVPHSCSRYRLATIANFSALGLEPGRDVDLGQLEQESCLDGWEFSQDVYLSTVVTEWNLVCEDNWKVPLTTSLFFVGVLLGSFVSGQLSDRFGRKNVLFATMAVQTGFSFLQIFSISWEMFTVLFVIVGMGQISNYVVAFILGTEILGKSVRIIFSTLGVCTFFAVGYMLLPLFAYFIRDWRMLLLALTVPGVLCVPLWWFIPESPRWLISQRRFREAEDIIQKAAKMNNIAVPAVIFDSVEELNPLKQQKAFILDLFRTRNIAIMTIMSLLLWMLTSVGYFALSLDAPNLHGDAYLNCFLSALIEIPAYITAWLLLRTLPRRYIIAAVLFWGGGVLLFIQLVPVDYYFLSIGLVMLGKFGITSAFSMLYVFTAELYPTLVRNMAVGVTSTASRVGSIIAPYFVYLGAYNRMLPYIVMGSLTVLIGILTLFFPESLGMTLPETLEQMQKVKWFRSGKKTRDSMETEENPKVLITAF
PROCEDURE_DETAILS: in vitro
EXPERIMENTAL_PARAMETERS: xenopus laevis, Xenopus laevis oocytes, probe TEA
MEASURE_NAME: activity at 1000 µM (%)

SMILES_STRING: Clc1cccc(Cl)c1N=C1NCCN1
TARGET_ENTITY: Solute carrier family 22 member 4 (Homo sapiens, UniProt Q9H015)
EXPERIMENTAL_VALUE: 70.9

---

TARGET_ENTITY: UniProt:Q9H015
Sequence (Q9H015 whole entry): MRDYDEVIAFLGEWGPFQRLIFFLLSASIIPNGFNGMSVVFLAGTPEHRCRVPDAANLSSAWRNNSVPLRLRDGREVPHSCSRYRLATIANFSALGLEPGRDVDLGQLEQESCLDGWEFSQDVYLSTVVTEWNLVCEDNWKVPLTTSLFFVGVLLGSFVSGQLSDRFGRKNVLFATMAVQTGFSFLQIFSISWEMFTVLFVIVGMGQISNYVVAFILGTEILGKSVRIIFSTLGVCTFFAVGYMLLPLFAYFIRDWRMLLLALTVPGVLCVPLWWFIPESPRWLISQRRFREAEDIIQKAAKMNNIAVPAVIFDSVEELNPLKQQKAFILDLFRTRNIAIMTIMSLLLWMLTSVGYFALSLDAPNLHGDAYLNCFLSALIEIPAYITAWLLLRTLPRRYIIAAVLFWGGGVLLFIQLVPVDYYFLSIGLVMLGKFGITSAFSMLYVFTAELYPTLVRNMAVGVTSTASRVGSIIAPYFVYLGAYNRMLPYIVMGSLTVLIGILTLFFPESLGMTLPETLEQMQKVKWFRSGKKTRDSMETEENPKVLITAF
PROCEDURE_DETAILS: TP_TRANSPORTER: inhibition of TEA uptake (TEA: 60 uM, L-Carnitine: 1000 uM) in Xenopus laevis oocytes
Type: functional, cell-based, Oocyte
Set-up: scale not given: the % may be the effect or the level left
EXPERIMENTAL_PARAMETERS: probe TEA, read-out: Activity

COMPOUND: C[N+](C)(C)CC(O)CC(=O)[O-] (stereo unspecified)
activity at 1000 µM (%): 32.5

---

TARGET_ENTITY: Solute carrier family 22 member 4 (Homo sapiens)
PROCEDURE_DETAILS: in vitro
EXPERIMENTAL_PARAMETERS: xenopus laevis, Xenopus laevis oocytes, probe TEA
Description: TP_TRANSPORTER: inhibition of TEA uptake (TEA: 60 uM, Choline: 5000 uM) in Xenopus laevis oocytes

SMILES_STRING: C[N+](C)(C)CCO
TARGET_ENTITY: Solute carrier family 22 member 4 (Homo sapiens)
activity at 5000 µM: 73.2%

---

TARGET_ENTITY: Solute carrier family 22 member 4 (Homo sapiens, UniProt Q9H015)
PROCEDURE_DETAILS: TP_TRANSPORTER: inhibition of TEA uptake (TEA: 60 uM, Pyrilamine: 1000 uM) in Xenopus laevis oocytes
Assay type: functional, cell-based, Oocyte
Parameters: scale not given: the % may be the effect or the level left
EXPERIMENTAL_PARAMETERS: probe TEA, read-out: Activity
MEASURE_NAME: activity at 1000 µM (%)

COMPOUND: COc1ccc(CN(CCN(C)C)c2ccccn2)cc1 [PYRILAMINE]
EXPERIMENTAL_VALUE: 0
